Below, each entry is listed with its recorded t½.
EXPERIMENTAL SYSTEM: T1, monkey IL-25 expressed with a C-terminal myc-myc-hexahistidine tag (M. fascicularis (cynomolgus monkey))
T1 construct: also called Monkey IL-25-MMH; MfIL-25-MMH
T1 chain: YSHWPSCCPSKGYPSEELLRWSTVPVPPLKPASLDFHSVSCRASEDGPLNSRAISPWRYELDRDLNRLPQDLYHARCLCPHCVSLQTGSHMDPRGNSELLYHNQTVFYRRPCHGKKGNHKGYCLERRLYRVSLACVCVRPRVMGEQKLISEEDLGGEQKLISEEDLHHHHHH
METHOD NOTES: SPR Biacore, antibody captured, 37C;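 note: biacore 4000 surface plasmon resonance biosensor measuring binding of IL-25-MMH to purified anti-IL-25 antibodies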
Kindly provide the numeric value in h only, without the unit symbol.

What measured t½ goes with H4H10897P (antibody, human IgG4, V domains shown, H4H prefix = human IgG4 Fc) VH: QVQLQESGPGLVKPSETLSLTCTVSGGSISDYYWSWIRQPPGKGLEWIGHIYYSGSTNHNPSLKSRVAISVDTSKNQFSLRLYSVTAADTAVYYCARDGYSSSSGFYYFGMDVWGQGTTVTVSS VL: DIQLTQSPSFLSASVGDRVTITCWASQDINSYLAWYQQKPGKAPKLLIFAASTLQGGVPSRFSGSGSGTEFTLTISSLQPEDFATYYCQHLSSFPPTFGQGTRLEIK ?
0.833

What measured t½ goes with H4H10861P (antibody, human IgG4, V domains shown, H4H prefix = human IgG4 Fc) VH: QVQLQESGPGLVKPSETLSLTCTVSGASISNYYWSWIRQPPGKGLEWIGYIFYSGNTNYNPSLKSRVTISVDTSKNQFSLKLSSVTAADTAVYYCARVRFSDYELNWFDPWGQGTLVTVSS VL: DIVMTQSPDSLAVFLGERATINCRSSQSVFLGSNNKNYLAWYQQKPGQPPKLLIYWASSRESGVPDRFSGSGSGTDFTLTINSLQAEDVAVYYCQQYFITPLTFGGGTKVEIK ?
2.7

What measured t½ goes with H4H10871P (antibody, human IgG4, V domains shown, H4H prefix = human IgG4 Fc) VH: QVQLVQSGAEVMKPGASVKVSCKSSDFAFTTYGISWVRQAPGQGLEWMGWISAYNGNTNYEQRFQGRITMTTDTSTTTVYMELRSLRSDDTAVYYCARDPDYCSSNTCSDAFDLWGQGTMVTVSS VL: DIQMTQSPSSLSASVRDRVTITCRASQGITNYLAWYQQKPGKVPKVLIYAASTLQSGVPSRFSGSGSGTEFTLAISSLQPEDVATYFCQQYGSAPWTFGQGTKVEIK ?
2.6

What measured t½ goes with H4H10905P (antibody, human IgG4, V domains shown, H4H prefix = human IgG4 Fc) VH: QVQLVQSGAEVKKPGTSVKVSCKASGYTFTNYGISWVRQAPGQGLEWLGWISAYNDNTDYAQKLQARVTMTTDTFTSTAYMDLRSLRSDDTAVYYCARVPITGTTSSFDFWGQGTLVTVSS VL: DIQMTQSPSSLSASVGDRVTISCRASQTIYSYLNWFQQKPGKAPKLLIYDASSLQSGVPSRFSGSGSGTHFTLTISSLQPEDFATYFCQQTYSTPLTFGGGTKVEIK ?
2.13

What measured t½ goes with H4H10876P (antibody, human IgG4, V domains shown, H4H prefix = human IgG4 Fc) VH: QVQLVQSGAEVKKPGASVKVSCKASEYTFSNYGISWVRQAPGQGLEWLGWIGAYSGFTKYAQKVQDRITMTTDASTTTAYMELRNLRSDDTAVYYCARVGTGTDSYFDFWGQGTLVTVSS VL: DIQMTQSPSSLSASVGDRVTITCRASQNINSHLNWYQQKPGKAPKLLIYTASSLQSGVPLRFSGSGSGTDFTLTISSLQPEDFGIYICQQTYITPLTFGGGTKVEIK ?
3.53

What measured t½ goes with H4H10901P (antibody, human IgG4, V domains shown, H4H prefix = human IgG4 Fc) VH: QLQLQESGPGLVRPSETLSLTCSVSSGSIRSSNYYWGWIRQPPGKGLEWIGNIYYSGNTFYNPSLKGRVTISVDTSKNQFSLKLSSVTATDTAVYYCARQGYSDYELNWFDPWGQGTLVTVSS VL: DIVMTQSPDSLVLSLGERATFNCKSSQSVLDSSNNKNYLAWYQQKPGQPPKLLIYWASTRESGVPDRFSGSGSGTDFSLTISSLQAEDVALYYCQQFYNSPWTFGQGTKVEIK ?
1.17

What measured t½ goes with H4H10863P (antibody, human IgG4, V domains shown, H4H prefix = human IgG4 Fc) VH: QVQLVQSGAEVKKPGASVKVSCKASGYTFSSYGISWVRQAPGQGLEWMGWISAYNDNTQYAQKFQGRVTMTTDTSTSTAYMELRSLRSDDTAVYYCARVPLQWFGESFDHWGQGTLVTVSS VL: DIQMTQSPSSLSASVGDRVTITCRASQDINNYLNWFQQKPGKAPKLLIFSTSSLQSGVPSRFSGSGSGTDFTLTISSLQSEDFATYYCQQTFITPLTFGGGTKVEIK ?
2.38

These measurements were taken from patent US20160083466A1.
